# target or system: JAK2 (Homo sapiens)
# Construct: purchased Carna Biosciences, Inc
# Sequence (O60674 whole entry): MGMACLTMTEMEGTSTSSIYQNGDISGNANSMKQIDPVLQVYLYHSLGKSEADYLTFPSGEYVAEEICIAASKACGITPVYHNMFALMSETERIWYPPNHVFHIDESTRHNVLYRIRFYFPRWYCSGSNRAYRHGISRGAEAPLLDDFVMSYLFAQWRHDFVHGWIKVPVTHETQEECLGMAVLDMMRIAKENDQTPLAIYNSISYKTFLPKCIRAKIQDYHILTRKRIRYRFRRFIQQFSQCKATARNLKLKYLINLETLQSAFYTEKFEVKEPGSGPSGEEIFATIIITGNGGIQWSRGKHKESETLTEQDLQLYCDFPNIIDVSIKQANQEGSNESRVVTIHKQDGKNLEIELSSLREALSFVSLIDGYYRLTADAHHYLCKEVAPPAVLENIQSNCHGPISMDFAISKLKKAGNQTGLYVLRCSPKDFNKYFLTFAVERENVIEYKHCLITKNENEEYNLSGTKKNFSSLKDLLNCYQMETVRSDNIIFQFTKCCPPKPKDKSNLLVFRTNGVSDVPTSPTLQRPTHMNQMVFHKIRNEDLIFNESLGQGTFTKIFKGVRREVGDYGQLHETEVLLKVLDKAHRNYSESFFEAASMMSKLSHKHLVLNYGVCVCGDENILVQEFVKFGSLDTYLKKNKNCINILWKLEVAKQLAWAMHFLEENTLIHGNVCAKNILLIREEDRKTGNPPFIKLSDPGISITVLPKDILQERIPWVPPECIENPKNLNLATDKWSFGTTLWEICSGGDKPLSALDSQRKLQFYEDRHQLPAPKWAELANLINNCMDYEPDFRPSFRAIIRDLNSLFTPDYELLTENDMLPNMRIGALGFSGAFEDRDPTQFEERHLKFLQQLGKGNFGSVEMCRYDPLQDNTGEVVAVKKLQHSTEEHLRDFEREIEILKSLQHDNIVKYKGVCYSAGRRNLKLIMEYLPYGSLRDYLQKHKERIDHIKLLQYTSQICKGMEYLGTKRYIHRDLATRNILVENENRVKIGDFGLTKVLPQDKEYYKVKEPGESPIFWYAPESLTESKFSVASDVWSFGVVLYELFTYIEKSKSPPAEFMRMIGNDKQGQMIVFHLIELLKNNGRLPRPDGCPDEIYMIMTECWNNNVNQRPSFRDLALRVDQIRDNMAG
# experiment summary: JAK tyrosine kinase inhibitory activity in the presence of 1 mM ATP (ELISA), JAK2
# Type: biochemical
# note: exactly 2000 nM is not below, so it is Criterion not met; use Criterion met for IC50 strictly under it

Worked set:
compound: Cc1c(N[C@@H](C)C2CC2)nc(-c2cnn3ccsc23)nc1C(=O)N1CCC(NC(=O)C2CC2)CC1
classification: Criterion not met
//
compound: COc1ccc([C@@H](C)Nc2cc(C(=O)N3CCC(NC(=O)C4CC4)CC3)nc(-c3cnn4ccsc34)n2)cc1
classification: Criterion not met
//
compound: CC(C)[C@@H](C)Nc1cc(C(=O)N2CCC(NC(=O)C(F)F)CC2)nc(-c2cnn3ccsc23)n1
classification: Criterion met
//
compound: CC1(Nc2cc(C(=O)N3CCC(NC(=O)C4CC4)CC3)nc(-c3cnn4ccsc34)n2)CC1
classification: Criterion met
//
compound: O=C(NC1CCN(C(=O)c2cc(NCC3(COC(F)F)CCOCC3)nc(-c3cnn4ccsc34)n2)CC1)C1CC1
classification: Criterion not met
//
compound: C[C@H](Nc1cc(C(=O)N2CCC(NC(=O)c3ccccc3)CC2)nc(-c2cnn3ccsc23)n1)C1CC1
classification: Criterion met
//
compound: COc1ccc([C@@H](C)Nc2cc(C(=O)N3CCC(O)CC3)nc(-c3cnn4ccsc34)n2)cc1
classification: Criterion not met
//
compound: COC(=O)NC1CCN(C(=O)c2cc(N[C@H](C)C3CCCCC3)nc(-c3cnn4ccsc34)n2)CC1
classification: Criterion not met
//
compound: C[C@@H](Nc1cc(C(=O)N2CCC(NC(=O)OC(C)(C)C)CC2)nc(-c2cnn3ccsc23)n1)C(C)(C)C
classification: Criterion not met
//
compound: CCOC(=O)NC1CCN(C(=O)c2cc(N[C@H](C)C3CC3)nc(-c3cnn4ccsc34)n2)CC1 [Example 73]
classification: Criterion not met

Could you please tell me whether IC50 recorded for CCC(CC)Oc1cc(C(=O)N2CCC(NC(=O)C3CC3)CC2)nc(-c2cnn3ccsc23)n1 is less than 2000 nM?
Criterion not met

Could you please tell me whether IC50 recorded for CC(C)OC(=O)NC1CCN(C(=O)c2cc(NC(C)(C)C)nc(-c3cnn4ccsc34)n2)CC1 is less than 2000 nM?
Criterion not met

Could you please tell me whether IC50 recorded for COc1ccccc1C(=O)NC1CCN(C(=O)c2cc(N[C@@H](C)C3CC3)nc(-c3cnn4ccsc34)n2)CC1 is less than 2000 nM?
Criterion not met

Could you please tell me whether IC50 recorded for CCCOC(=O)NC1CCN(C(=O)c2cc(N[C@H](C)C(C)(C)C)nc(-c3cnn4ccsc34)n2)CC1 is less than 2000 nM?
Criterion not met

Could you please tell me whether IC50 recorded for COC(=O)NC1CCN(C(=O)c2cc(OCC3CN(C(=O)OC(C)(C)C)C3)nc(-c3cnn4ccsc34)n2)CC1 is less than 2000 nM?
Criterion not met

* * *

# target or system: JAK2 (Homo sapiens)
# Construct: purchased Carna Biosciences, Inc
# experiment summary: JAK tyrosine kinase inhibitory activity in the presence of 1 mM ATP (ELISA), JAK2
# Assay type: biochemical
Counter-ions that a name gives are not always drawn.
readout label: IC50 (nM)
Answers are plain numbers, in nM.

compound: CC(=O)NC1CCN(C(=O)c2nc(-c3cnn4ccsc34)nc(N[C@@H](C)C3CC3)c2C)CC1 [Example 13]
target or system: JAK2 (Homo sapiens)
IC50 [nM]: 2400
//
compound: CCC(CC)COc1cc(C(=O)N2CCC(NC(=O)C3CC3)CC2)nc(-c2cnn3ccsc23)n1 [Example 107]
target or system: JAK2 (Homo sapiens)
IC50 [nM]: 3500
//
compound: CCS(=O)(=O)NC1CCN(C(=O)c2cc(N[C@@H](C)C3CC3)nc(-c3cnn4ccsc34)n2)CC1 [Example 68]
target or system: JAK2 (Homo sapiens)
IC50 [nM]: 790
//
compound: CC(Oc1cc(C(=O)N2CCC(NC(=O)C3CC3)CC2)nc(-c2cnn3ccsc23)n1)C(C)(C)C (centres unmarked) [Example 44]
target or system: JAK2 (Homo sapiens)
IC50 [nM]: 1300
//
compound: CCC(CC)CNc1cc(C(=O)N2CCC(NC(=O)C3CC3)CC2)nc(-c2cnn3ccsc23)n1 [Example 110]
target or system: JAK2 (Homo sapiens)
IC50 [nM]: 880

Parameters: items (list). Returns: IC50 for each item.
1. C[C@@H](Nc1cc(C(=O)N2CCC(NC(=O)c3ccccc3Cl)CC2)nc(-c2cnn3ccsc23)n1)C(C)(C)C [Example 196]
2. COC(=O)NC1CCN(C(=O)c2cc(OC(C)C(C)(C)C)nc(-c3cnn4ccsc34)n2)CC1 (centres unmarked) [Example 64]
3. CCC(C)(C)Nc1cc(C(=O)N2CCC(NC(=O)OC)CC2)nc(-c2cnn3ccsc23)n1 [Example 80]
4. COC(=O)NC1CCN(C(=O)c2cc(N[C@@H](C)C3CC3)nc(-c3cnn4ccsc34)n2)CC1.Cl [Example 27, hydrochloride]

1. 9100
2. 3100
3. 820
4. 2500

Parameters: items (list). Returns: IC50 for each item.
1. CC(C)(C)Nc1cc(C(=O)N2CCC(Nc3nccs3)CC2)nc(-c2cnn3ccsc23)n1 [Example 75]
2. CC(C)C(=O)NC1CCN(C(=O)c2cc(NC(C)(C)C)nc(-c3cnn4ccsc34)n2)CC1 [Example 69]
3. C[C@H](Nc1cc(C(=O)N2CCC(NC(=O)NC3CC3)CC2)nc(-c2cnn3ccsc23)n1)C1CC1 [Example 34]
4. C[C@@H](C1CC1)N(C)c1cc(C(=O)N2CCC(NC(=O)C3CC3)CC2)nc(-c2cnn3ccsc23)n1 [Example 33, hydrochloride]
5. C[C@@H](Nc1cc(C(=O)N2CCC(NC(=O)OCC(F)(F)F)CC2)nc(-c2cnn3ccsc23)n1)C(C)(C)C [Example 104]

1. 930
2. 3500
3. 1900
4. 1700
5. 3000
